Assay: reduced mouse 2C T cell binding to pMHC/ICAM-1 vesicles – MLPCN validation set, flow cytometry, LFA-1/ICAM-1 modulator project, pilot screen (AID 2523)
Conditions: 2C mouse CD8+ T cells, at 7 µM, stronger effect = lower value; measured here: CD8+/vesicle+ event percentage
double positive events values for the molecules below.
Give your result in % as a bare value.

C[C@]12CC[C@@H]3c4ccc(O)cc4[C@@H](O)C[C@H]3[C@@H]1CC[C@@H]2O = 59.1
O=C(NC(=S)Nc1ccc2c(c1)OCCO2)c1ccccc1F = 61.5
CCCCCC(O)c1cccc(OCc2ccc3ccccc3n2)c1 (stereo unspecified) = 65.2

Entry CCC(C(=O)Nc1ccc2c(c1)OCCO2)c1ccccc1 (stereo unspecified) : reported double positive events = ? 58.6

Try the molecule O=C(CCC1CCCN(C(=O)c2ccsc2)C1)NCc1ccc(F)c(F)c1 (stereo unspecified) 62.4

Try the molecule CN(C)CCC(c1ccccc1)c1ccccn1 (stereo unspecified) 64.9

---

percent of DMSO control GFP values for the molecules below.
Experiment: rapamycin-like changes in RPL19A-GFP expression – cell-based, S. cerevisiae, multiplex flow cytometry, primary screen (AID 1862);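 further: lower values mimic rapamycin by blocking the RPL19A rise seen in DMSO cells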
Settings: S. cerevisiae RPL19A-GFP strain, flow cytometry fluorescence, 3 h; at 10 µM; stronger effect = lower value
Inconclusive results are not listed.
Give your result in % as a bare value.

# annotated cases, reported percent of DMSO control GFP shown
NNC(=O)c1ccncc1 = 102
CC(NC(=O)c1cccnc1)C(=O)O (stereo unspecified) = 105
O=C1CCc2cc(OCCCCc3nnnn3C3CCCCC3)ccc2N1 = 92.4
CCOC(=O)C1=C(C)N[C@@]2(O)c3ccccc3C(=O)[C@@]12O = 102
CCOc1ccc2nc(S(N)(=O)=O)sc2c1 = 101

Entry CSCCC(NC(C)=O)C(=O)Oc1ccc2c3c(c(=O)oc2c1)CCCC3 (stereo unspecified) : reported percent of DMSO control GFP = ? 102

---

Assay: rapamycin-like changes in RPL19A-GFP expression – cell-based, S. cerevisiae, multiplex flow cytometry, primary screen (AID 1862);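 further: lower values mimic rapamycin by blocking the RPL19A rise seen in DMSO cells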
Conditions: S. cerevisiae RPL19A-GFP strain, flow cytometry fluorescence, 3 h; at 10 µM; stronger effect = lower value
Inconclusive results are not listed.
measure: percent of DMSO control GFP (%)
Give your result in % as a bare value.

# annotated cases, reported percent of DMSO control GFP shown
CCOCC(=O)Nc1ccccc1C(=O)N1CCOCC1 = 97
COc1cc(/C=C/C(=O)CC(=O)/C=C/c2ccc(O)c(OC)c2)ccc1O = 117
CC(C)(Oc1ccc(CCNC(=O)c2ccc(Cl)cc2)cc1)C(=O)O = 106
CSCCC(NC(=O)/C(=C/c1ccc2c(c1)OCO2)NC(=O)c1cccc([N+](=O)[O-])c1)C(=O)O (configuration not stated) = 93.7

Entry CCNC(=O)C12CCC(C)(C(=O)O1)C2(C)C (configuration not stated) : reported percent of DMSO control GFP = ? 105

Try the molecule O=C(O)CCn1cnc2ccccc2c1=O 97.8

Try the molecule CNCCCC1c2ccccc2C=Cc2ccccc21 96.1

Try the molecule O=CNC1CCCc2c1[nH]c1ccc(Cl)cc21 (configuration not stated) 101

Try the molecule O=C(Cc1ccccc1[N+](=O)[O-])NCCCN1CCOCC1 101

Try the molecule CCCCCCCCCC(=O)OCC(O)CO (configuration not stated) 105

Try the molecule CN(C)CCN(Cc1ccccc1)c1ccccn1 94.8

Try the molecule CC(=O)c1c(C)c(C)c2n1CCn1c(C)ccc1-2 105

---

Target: AP-2 complex subunit beta (Homo sapiens) (UniProt P63010)
Sequence (P63010 whole entry, looked up, one chain of several): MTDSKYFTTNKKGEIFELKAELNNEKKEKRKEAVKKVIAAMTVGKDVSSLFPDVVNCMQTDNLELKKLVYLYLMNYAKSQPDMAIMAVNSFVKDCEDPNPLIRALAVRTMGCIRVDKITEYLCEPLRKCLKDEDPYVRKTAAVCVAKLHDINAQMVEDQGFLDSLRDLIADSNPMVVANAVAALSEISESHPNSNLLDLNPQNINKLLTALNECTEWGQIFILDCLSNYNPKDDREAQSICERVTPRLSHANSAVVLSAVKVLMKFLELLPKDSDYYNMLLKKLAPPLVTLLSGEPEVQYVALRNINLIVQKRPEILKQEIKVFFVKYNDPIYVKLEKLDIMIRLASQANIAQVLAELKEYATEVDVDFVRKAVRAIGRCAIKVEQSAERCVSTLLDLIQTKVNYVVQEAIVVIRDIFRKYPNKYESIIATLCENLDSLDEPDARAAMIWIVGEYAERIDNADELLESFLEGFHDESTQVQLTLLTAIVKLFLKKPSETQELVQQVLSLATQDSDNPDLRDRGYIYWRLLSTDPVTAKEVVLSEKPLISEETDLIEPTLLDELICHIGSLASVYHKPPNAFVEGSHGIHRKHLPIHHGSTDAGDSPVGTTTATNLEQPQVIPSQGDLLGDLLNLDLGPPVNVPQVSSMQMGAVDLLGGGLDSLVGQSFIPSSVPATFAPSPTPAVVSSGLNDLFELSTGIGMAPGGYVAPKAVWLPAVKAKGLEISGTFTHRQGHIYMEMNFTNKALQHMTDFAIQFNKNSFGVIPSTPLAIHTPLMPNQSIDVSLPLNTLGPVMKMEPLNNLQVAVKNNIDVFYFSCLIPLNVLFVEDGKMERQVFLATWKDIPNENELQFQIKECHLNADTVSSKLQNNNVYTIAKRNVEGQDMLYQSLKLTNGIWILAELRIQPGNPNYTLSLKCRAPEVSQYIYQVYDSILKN
Test: beta-arrestin/AP2 interaction blockers – biochemical, validation set, GST-AP2 beads, flow cytometry, pilot screen (AID 504541);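 further: AP2 carries R879A mutation and is captured from E. coli lysate; bead-bound FITC arrestin peptide fluorescence measuring arrestin peptide binding to AP2; 0% = DMSO wells and 100% = excess unlabeled arrestin peptide control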
Details: FITC arrestin peptide, at 10 µM, stronger effect = higher value, AP2 beta2 appendage fragment, R879A mutant
Calls of active or inactive are those of the source.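 How the source made its calls: active means inhibition above 54%, about 3 SD of non-fluorescent compounds; inactive means the rest.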
measure: inhibition

CC(C)C12CN3CC(C(C)C)(CN(C1)C31C(=O)Nc3ccccc31)C2=O (centres undefined) = -3.03% (inactive)

Could you now consider this next compound?
Entry O=C(O)C1Cc2ccccc2CN1S(=O)(=O)c1ccccc1 (centres undefined) : reported inhibition = ? 1.65% (inactive)

---

Assay: cytosolic pH regulators acting via V-ATPase – S. cerevisiae, pHLuorin, HTS validation (AID 504600);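 further: plate controls were DMSO for no effect and reference compound for full effect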
Conditions: V-ATPase proton transport, at 10 µM, stronger effect = higher value
response values for the compounds below.
Give your result in % as a bare value.

# annotated cases, reported response shown
NC(N)=N/N=C/c1ccc(OS(=O)(=O)c2ccccc2)cc1 = -4.93
O=C(NCCO)c1ccc2[nH]c3ccccc3c2c1 = 3.8
COC(=O)[C@H]1[C@H]2C[C@@H]3c4[nH]c5cc(OC)ccc5c4CCN3C[C@H]2C[C@@H](OC(=O)c2ccc(N)cc2)[C@@H]1OC = -2.37

Entry CC1(C)O[C@@H]2C[C@H]3[C@@H]4C[C@H](F)C5=CC(=O)CC[C@]5(C)[C@H]4[C@@H](O)C[C@]3(C)[C@]2(C(=O)CO)O1 : reported response = ? -2

Try the compound Cc1ccc(CSCC(=O)N2CCCC2)cc1 -8.52

---

Assay: TOR pathway GLN3 branch reporter MEP2-GFP changes – S. cerevisiae, multiplex flow cytometry, primary screen (AID 1867);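 further: median GFP channel fluorescence of barcode-gated MEP2-GFP cells measured by flow cytometry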
Details: S. cerevisiae MEP2-GFP strain, 3 h, at 10 µM, stronger effect = higher value, 100% means same as DMSO wells
Records with an inconclusive call do not appear.
GFP response vs DMSO values for the compounds below.
Give your result in % as a bare value.

# annotated cases, reported GFP response vs DMSO shown
COc1cccc(OCc2nnc(-c3cccs3)o2)c1 = 105
CSc1cccc(NC(=O)/C=C/c2ccccc2)c1 = 90.5
COc1ccc(NS(=O)(=O)c2ccc(N)cc2)nn1 = 104

Entry CCC(C)NCCOc1ccc(C(C)(C)c2ccccc2)cc1 (configuration not stated) : reported GFP response vs DMSO = ? 99.3

Try the compound O=C1c2ccccc2N2C(=O)c3ccccc3C2N1Cc1ccco1 (configuration not stated) 104

Try the compound CN(C)CCC(c1ccccc1)c1ccccn1 (configuration not stated) 130

---

Assay: yeast AGP1-GFP level changes, GLN3 branch – cell-based, multiplex flow cytometry, S. cerevisiae, primary screen (AID 1887);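 further: AGP1-GFP fusion strain of S. cerevisiae within a five-strain barcoded multiplex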
Conditions: 3 h, at 10 µM, stronger effect = higher value
Results filed as inconclusive are left out.
GFP response, % of DMSO values for the compounds below.
Give your result in % as a bare value.

# annotated cases, reported GFP response, % of DMSO shown
Cc1nc(-c2coc3c(CN(C)C)c(O)ccc3c2=O)cs1 = 88
O=C(Nc1ncc2c(n1)CC(c1ccco1)CC2=O)c1ccco1 (stereo not given) = 95.7
O=c1[nH]cc(F)c(=O)[nH]1 = 104
C1CCC(C(CC2CCCCN2)C2CCCCC2)CC1 (stereo not given) = 116
CC(=O)Nc1c(I)c(NC(C)=O)c(I)c(C(=O)O)c1I = 94

Entry Cc1ccc(Cl)c(Nc2ccccc2C(=O)O)c1Cl : reported GFP response, % of DMSO = ? 98

Try the compound COc1cccc(=O)c2c(C)n(CC(=O)c3ccccc3)c(C)c12 113

Try the compound Fc1ccccc1CNCCC(Cc1ccccc1)c1ccc2c(c1)OCO2 (stereo not given) 94.9

Try the compound CC(=O)NC(Cc1ccccc1)C(=O)OCC(=O)c1ccccc1 (stereo not given) 100

Try the compound O=C1OC(c2ccccc2)=C/C1=C/c1cccs1 97.3

---

Target: GTPase HRas (Homo sapiens)
Test: Ras wt fluorescent GTP loading blockade – biochemical, wildtype, multiplex bead flow cytometry, dose response (AID 1335)
Conditions: bead-based flow cytometry, Bodipy-GTP binding to GST-Ras; at 100 µM (top of the series) unless noted
measure: GTP binding, percent of control (%)
Give your result in % as a bare value.

# annotated cases, reported GTP binding, percent of control shown
O=c1[nH]cnc2c1C(c1ccccc1[N+](=O)[O-])c1c(nc[nH]c1=O)O2 = 50
CSc1nc(Cc2ccccc2)cc(=O)[nH]1 = 80.4
O=C(c1cccnc1SCCc1ccccc1)N1CCOCC1 = 101
CC1=C(C(=O)Nc2ccccc2)C(c2ccc(Cl)cc2)n2c(s/c(=C/c3cccc(OCC(=O)O)c3)c2=O)=N1 (stereo unspecified) = 75.3

Quick check: GTP binding, percent of control on GTPase HRas (Homo sapiens), item CCC(/C=C1\Sc2ccc(OC)cc2N1CCO)=C\c1sc2ccc(OC)cc2[n+]1CCO ? 46.8

---

Test: reduced mouse 2C T cell binding to pMHC/ICAM-1 vesicles – MLPCN validation set, flow cytometry, LFA-1/ICAM-1 modulator project, pilot screen (AID 2523);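 on vesicle binding response: mean PE anti-B7-1 fluorescence of CD8+ cells relative to row control; 100% = QL9-loaded vesicles with DMSO vehicle in the same plate row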
Details: 2C mouse CD8+ T cells, at 7 µM, stronger effect = lower value
Active and inactive are the calls of the source.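 The calls were made as follows: active = response below a set limit, under 55% cells CD8-positive and vesicle-bound, and CD8 cells' 90th-percentile brightness under 279; inactive = the rest.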
measure: vesicle binding response

COc1cc2cc(C(=O)O)[nH]c2c(OC)c1OC = 187% (inactive)
NS(=O)(=O)c1cc2c(cc1Cl)NC(C1C[C@H]3C=C[C@@H]1C3)NS2(=O)=O (stereo partly specified) = 153% (inactive)
O=C(NCC1CCCO1)c1ccc(OC2CCN(C(=O)C3CC3)CC2)cc1 (stereo unspecified) = 5260% (inactive)
O=C(NC1CCCCC1)N1CCc2[nH]c3ccccc3c2C1 = 212% (inactive)
CC(C)=CCC(C)(C)/C=N/NC(N)=O = 464% (inactive)
CCN(CCCCOC(=O)c1ccc(OC)c(OC)c1)C(C)Cc1ccc(OC)cc1 (stereo unspecified) = 194% (inactive)
CCOC(=O)C1=C2c3ccc4ccccc4c3CC(C)(C)N2C(=O)C1=O = 205% (inactive)
CCSC(=O)CCCCCCCCCCCO = 348% (inactive)
CC(CCc1ccccc1)NC(=O)/C=C/c1ccccc1 (stereo unspecified) = 129% (inactive)
O=C1ON=C(c2ccc(Cl)cc2)/C1=C/c1ccc(O)cc1 = 94.3% (inactive)

Entry COc1cccc2c(=O)c3ccccc3oc12 : reported vesicle binding response = ? 134% (inactive)

Try the compound COc1ccc(C(=O)Oc2ccc3c(C)cc(=O)oc3c2C(C)=O)cc1 123% (inactive)
